# Tested on: human cervical cancer (HeLa) cells
# experimental protocol: MTT cytotoxicity assay, HeLa cells
# Assay type: cell-based
# details: means ± SD (n = 3)
parameter: IC50 (μg/mL) HeLa (µg/mL)

# compound, reported
rows = [
    ("CO[C@@H]1[C@@H](O)[C@H](CO)O[C@@H](O[C@H]2[C@@H](O)[C@@H](O[C@H]3[C@@H](O)[C@@H](O[C@H]4OC[C@@H](O)[C@@H](O)[C@@H]4O)[C@H](O[C@H]4[C@H](O[C@H]5CC[C@@]6(C)[C@H](CC=C7[C@@H]6CC[C@]68C(=O)O[C@](C)(CCCC(C)C)[C@H]6[C@H](OC(C)=O)C[C@@]78C)C5(C)C)OC[C@@H](OS(=O)(=O)O)[C@H]4O)O[C@@H]3C)OC[C@@H]2O)[C@@H]1O [Frondoside A1 (10), Frondoside A1]", 2.03),
    ("CO[C@@H]1[C@@H](O)[C@H](O[C@@H]2[C@@H](O)[C@H](O[C@H]3[C@H](O)[C@@H](O)[C@H](O[C@H]4[C@H](O[C@H]5CC[C@]6(C)C7=C[C@H](O)C89C(=O)O[C@@](C)(CCC=C(C)C)[C@@]8(O)CC[C@@]9(C)C7CCC6C5(C)C)OC[C@@H](OS(=O)(=O)[O-])[C@@H]4O)O[C@@H]3C)O[C@H](CO)[C@H]2O)O[C@H](CO)[C@H]1O.[Na+] (some centres unmarked) [24-Dehydro echinoside A (2), 24-Dehydro echinoside A]", 2.06),
]
